study_system: human GLP-1 receptor (Homo sapiens, UniProt P43220)
Construct: expressed in transfected cells; host or cells: PSC-HEK-293
Sequence (P43220 24-463): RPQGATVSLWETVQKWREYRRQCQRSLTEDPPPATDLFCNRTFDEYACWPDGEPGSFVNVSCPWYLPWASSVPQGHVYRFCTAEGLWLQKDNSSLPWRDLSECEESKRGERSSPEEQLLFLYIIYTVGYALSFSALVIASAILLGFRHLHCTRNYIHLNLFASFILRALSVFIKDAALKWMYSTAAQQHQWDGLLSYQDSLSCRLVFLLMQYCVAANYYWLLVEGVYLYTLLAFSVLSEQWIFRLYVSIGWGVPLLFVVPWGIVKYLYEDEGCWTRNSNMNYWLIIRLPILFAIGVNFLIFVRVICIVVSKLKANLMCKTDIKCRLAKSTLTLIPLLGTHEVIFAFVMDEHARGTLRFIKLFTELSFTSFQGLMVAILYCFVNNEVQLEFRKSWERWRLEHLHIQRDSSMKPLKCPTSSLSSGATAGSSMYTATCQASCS
test: HTRF cAMP assay in HEK-293 cells expressing human GLP-1 receptor
Assay type: cell-based
experimental_setup: HEK-293 cells; read-out: HTRF cAMP EC50 Human GLP-1R
Bridge positions count the residues as written; N and C are the ends. Ends that are not written are not given here.
measure: pEC50
// returns pEC50 (minus log10 of molar concentration), number only

INPUT: Return reported pEC50. Input substance: HGEGTFTSDLSKQCEEERVQLFIEWLKATGPSSGKPPPKPGC-NH2 (disulfide 14-42) [Ab P035]
OUTPUT: 10.69
